# assay-info: Stability in mouse liver microsomes
# Type: in vitro ADME
# MLM Stability Cli per record follows
Numeric answer only, unit µL/min/mg protein assumed.

CC(=O)N1CC2(CC2)c2ccccc21: 360
CC(=O)N1CCc2c1ccc(Cl)c2C(F)(F)F: 650
CC(=O)N1CC2(CC2)c2c1cccc2C(F)(F)F: 670

Problem: Entry CC(=O)N1CCc2ccccc21 has what MLM Stability Cli?
Solution: 180

---

# test-target: Notum (core, 81–451C330S) (Homo sapiens, UniProt Q6P988, C330S)
# Construct: high-throughput biochemical assay with Notum (81–451C330S) and OPTS as a synthetic fluorescent substrate; made in house
# Sequence (Q6P988 81-451 C330S): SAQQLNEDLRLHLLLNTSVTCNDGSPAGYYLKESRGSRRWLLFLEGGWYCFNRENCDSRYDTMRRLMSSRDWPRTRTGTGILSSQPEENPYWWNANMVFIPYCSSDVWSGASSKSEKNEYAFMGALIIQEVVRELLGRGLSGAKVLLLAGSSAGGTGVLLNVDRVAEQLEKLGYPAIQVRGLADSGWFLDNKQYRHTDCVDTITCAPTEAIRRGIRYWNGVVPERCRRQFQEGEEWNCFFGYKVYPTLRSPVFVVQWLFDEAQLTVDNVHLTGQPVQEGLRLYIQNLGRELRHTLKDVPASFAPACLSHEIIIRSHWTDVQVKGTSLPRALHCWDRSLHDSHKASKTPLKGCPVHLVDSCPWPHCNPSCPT
# assay-info: Notum-OPTS biochemical assay, Notum (81–451C330S)
# run-parameters: Table 2; mean ± s.d. of n = 4–12; >10 = 20–50% inhibition @ 10 μM; read-out: Notum IC50
pIC50: −log10 of the molar value.
Please enter Condition met where pIC50 is greater than or equal to 6, and Condition not met where it is lower.

CC(=O)N1CCc2c(C3CC3)cccc21: Condition met
CC(=O)N1CCc2c1ccc(Cl)c2Cl: Condition met
CC(=O)N1CCc2cccc(Cl)c21: Condition not met
CC(=O)N1CCc2cc(F)ccc21: Condition met
CC(=O)N1CCc2c(C)cccc21: Condition met

Please find the next compound below.
Problem: Hello, I need to know if CC(=O)N1CC2(CC2)c2c(Cl)cccc21 has measured pIC50 not below 6. Thanks!
Solution: Condition met
